Measured IC50 on RAC-alpha serine/threonine-protein kinase (Homo sapiens, UniProt P31749) follows.
Sequence (P31749 whole entry): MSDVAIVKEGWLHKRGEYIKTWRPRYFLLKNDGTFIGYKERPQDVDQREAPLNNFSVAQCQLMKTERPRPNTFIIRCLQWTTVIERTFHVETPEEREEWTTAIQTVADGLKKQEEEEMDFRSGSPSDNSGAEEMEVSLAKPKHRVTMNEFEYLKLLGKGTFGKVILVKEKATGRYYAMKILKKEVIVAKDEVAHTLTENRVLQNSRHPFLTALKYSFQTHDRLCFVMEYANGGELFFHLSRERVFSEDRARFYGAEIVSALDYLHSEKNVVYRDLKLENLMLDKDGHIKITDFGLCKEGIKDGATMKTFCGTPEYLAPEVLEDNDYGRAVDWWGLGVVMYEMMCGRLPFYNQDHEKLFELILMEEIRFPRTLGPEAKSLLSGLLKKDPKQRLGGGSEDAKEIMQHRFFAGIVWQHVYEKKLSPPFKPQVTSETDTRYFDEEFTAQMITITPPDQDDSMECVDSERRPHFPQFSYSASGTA
Measurement Type: IC50 (nM)

1) CCn1c(-c2nonc2N)nc2c(C#CC(C)(C)O)nc(OC[C@@H](C)N)cc21    8
2) CCn1c(-c2nonc2N)nc2c(C#CC(C)(C)O)nc(CCCN)cc21    3
3) CCn1c(-c2nonc2N)nc2c(C#CC(C)(C)O)nc(CCN)cc21    4
4) CCn1c(-c2nonc2N)nc2c(C#CC(C)(C)O)nc(CN3CCCC3)cc21 [GSK-1000163A]    6
5) CCn1c(-c2nonc2N)nc2c(C#CC(C)(C)O)nc(OC[C@H](N)Cc3ccccc3)cc21    0.6
